Measured solubility by item
# assay explanation: Aqueous solubility of salt polymorphs
# assay setup: water, 25 °C, Aqueous Solubility at 25-30° C. (mg/ml)

| compound | property measured | experimental result |
| --- | --- | --- |
| COc1c(N2CC[C@@H](N)C(C)(C)C2)c(F)cc2c(=O)c(C(=O)O)cn(C3CC3)c12.CS(=O)(=O)O [(+) B-1] | solubility | 80 to 200 mg/mL |

Prompt line: Need solubility of COc1c(N2CCC(N)C(C)(C)C2)c(F)cc2c(=O)c(C(=O)O)cn(C3CC3)c12.CS(=O)(=O)O (racemic) [(±) B-1] , thanks.
Response line: 80 to 200 mg/mL
